What inhibition at 0.111 µM was measured for each of the following?
target: recombinant human UAE (Homo sapiens (Human), UniProt P22314); assay: Ubiquitin Activating Enzyme (UAE) HTRF Assay; details: read-out: % inhibition @0.111 μM
Sequence (P22314 whole entry): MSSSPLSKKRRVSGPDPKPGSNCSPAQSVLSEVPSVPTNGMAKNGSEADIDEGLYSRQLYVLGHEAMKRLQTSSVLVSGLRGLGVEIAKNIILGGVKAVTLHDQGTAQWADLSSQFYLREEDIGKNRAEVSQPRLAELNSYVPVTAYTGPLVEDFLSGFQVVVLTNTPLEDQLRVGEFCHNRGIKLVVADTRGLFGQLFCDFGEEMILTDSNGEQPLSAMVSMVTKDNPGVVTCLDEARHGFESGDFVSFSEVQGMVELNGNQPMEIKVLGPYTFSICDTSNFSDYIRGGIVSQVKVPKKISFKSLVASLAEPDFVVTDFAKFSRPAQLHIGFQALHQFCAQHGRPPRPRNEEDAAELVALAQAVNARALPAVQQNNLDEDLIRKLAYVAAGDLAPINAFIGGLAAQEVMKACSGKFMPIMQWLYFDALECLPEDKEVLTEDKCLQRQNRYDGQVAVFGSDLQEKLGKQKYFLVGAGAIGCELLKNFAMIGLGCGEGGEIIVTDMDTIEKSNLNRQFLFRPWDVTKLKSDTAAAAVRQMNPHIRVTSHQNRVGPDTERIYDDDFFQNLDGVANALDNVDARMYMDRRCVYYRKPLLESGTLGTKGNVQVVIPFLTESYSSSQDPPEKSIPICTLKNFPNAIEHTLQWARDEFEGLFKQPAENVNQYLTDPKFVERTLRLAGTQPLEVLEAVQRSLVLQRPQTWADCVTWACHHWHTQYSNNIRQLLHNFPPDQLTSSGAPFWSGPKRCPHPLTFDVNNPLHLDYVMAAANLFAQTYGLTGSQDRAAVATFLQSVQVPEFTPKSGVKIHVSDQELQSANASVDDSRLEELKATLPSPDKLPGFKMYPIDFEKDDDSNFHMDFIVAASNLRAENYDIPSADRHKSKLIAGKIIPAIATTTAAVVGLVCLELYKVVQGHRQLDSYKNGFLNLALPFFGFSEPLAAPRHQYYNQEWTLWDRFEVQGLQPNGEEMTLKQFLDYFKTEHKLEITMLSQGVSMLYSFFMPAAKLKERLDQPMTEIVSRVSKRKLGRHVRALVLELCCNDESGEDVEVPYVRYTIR
Numbers only; they are read as %.

Problem: Please report the recorded inhibition at 0.111 µM for NS(=O)(=O)OC[C@H]1C[C@@H](Nc2ccnc3cc(-c4cccc5c4sc4ccccc45)nn23)[C@H](O)[C@@H]1O (relative stereo) [Compound I-056] .
Result: 100

Problem: I have this compound here, NS(=O)(=O)OC[C@H]1C[C@@H](Nc2ccnc3cc(-c4ccc(C(F)(F)F)s4)nn23)[C@H](O)[C@@H]1O (relative stereo) [Compound I-060] , and I need its recorded inhibition at 0.111 µM.
Result: 89

Problem: What value of inhibition at 0.111 µM has been recorded for this entry: NS(=O)(=O)OC[C@H]1C[C@@H](Nc2ccnc3cc(-c4coc5ccc(Cl)cc45)nn23)[C@H](O)[C@@H]1O (relative stereo) [Compound I-092]
Result: 100

====

molecular target: recombinant human UAE (Homo sapiens (Human), UniProt P22314); test: Ubiquitin Activating Enzyme (UAE) HTRF Assay; settings: read-out: % inhibition @0.111 μM
Endpoint Label: inhibition at 0.111 µM (%)
Field: numeric (%). Do not append units.

Problem: inhibition at 0.111 µM of NS(=O)(=O)OC[C@H]1C[C@@H](Nc2ccnc3cc(-c4cc5ccccc5[nH]4)nn23)[C@H](O)[C@@H]1O (relative stereo) on recombinant human UAE (Homo sapiens (Human), UniProt P22314)?
Result: 98

Problem: API: value(readout= inhibition at 0.111 µM, system= recombinant human UAE (Homo sapiens (Human), UniProt P22314), query= NS(=O)(=O)OC[C@H]1C[C@@H](Nc2ccnc3cc(-c4cccc5cccnc45)nn23)[C@H](O)[C@@H]1O (relative stereo) )
Result: 100

Problem: // map NS(=O)(=O)OC[C@H]1C[C@@H](Nc2ccnc3cc(-c4cccc(-c5ccccc5)c4)nn23)[C@H](O)[C@@H]1O (relative stereo) to recorded inhibition at 0.111 µM (system: recombinant human UAE (Homo sapiens (Human), UniProt P22314))
Result: 100

Problem: For recombinant human UAE (Homo sapiens (Human), UniProt P22314), provide inhibition at 0.111 µM of NS(=O)(=O)OC[C@H]1C[C@@H](Nc2ccnc3cc(-c4ccc5ncccc5c4)nn23)[C@H](O)[C@@H]1O (relative stereo) please.
Result: 100

Problem: Provide the documented inhibition at 0.111 µM with recombinant human UAE (Homo sapiens (Human), UniProt P22314) as the system for NS(=O)(=O)OC[C@H]1C[C@@H](Nc2ccnc3cc(-c4cccc5ccccc45)nn23)[C@H](O)[C@@H]1O
Result: 100

Problem: What measured inhibition at 0.111 µM is associated with Cn1cc(-c2cccc(-c3cc4nccc(N[C@@H]5C[C@H](COS(N)(=O)=O)[C@@H](O)[C@H]5O)n4n3)c2)cn1 (relative stereo) on recombinant human UAE (Homo sapiens (Human), UniProt P22314)?
Result: 97

Problem: Recorded inhibition at 0.111 µM for NS(=O)(=O)OC[C@H]1C[C@@H](Nc2ccnc3cc(-c4ccnc(C(F)(F)F)c4)nn23)[C@H](O)[C@@H]1O (relative stereo) with recombinant human UAE (Homo sapiens (Human), UniProt P22314), please?
Result: 94

Problem: // lookup inhibition at 0.111 µM | system=recombinant human UAE (Homo sapiens (Human), UniProt P22314) | key= COc1ccc(OC(F)(F)F)cc1-c1cc2nccc(N[C@@H]3C[C@H](COS(N)(=O)=O)[C@@H](O)[C@H]3O)n2n1 (relative stereo) [Compound I-066]
Result: 100

Problem: // fetch recombinant human UAE (Homo sapiens (Human), UniProt P22314) inhibition at 0.111 µM for Cc1cnc2cc(-c3ccccc3)nn2c1N[C@@H]1C[C@H](COS(N)(=O)=O)[C@@H](O)[C@H]1O (relative stereo)
Result: 27

Problem: What inhibition at 0.111 µM appears in the records for this compound with recombinant human UAE (Homo sapiens (Human), UniProt P22314)? COc1ccc(-c2cc3nccc(N[C@@H]4C[C@H](COS(N)(=O)=O)[C@@H](O)[C@H]4O)n3n2)c2ccccc12
Result: 100

Problem: Please state recorded inhibition at 0.111 µM (tested on recombinant human UAE (Homo sapiens (Human), UniProt P22314)) of CC1(C)OCc2ccc(-c3cc4nccc(N[C@@H]5C[C@H](COS(N)(=O)=O)[C@@H](O)[C@H]5O)n4n3)cc21 (relative stereo)
Result: 100

Problem: Give the reported inhibition at 0.111 µM for CN(C)c1ccc(-c2cc3nccc(N[C@@H]4C[C@H](COS(N)(=O)=O)[C@@H](O)[C@H]4O)n3n2)c2ccccc12 (system: recombinant human UAE (Homo sapiens (Human), UniProt P22314)).
Result: 100

Problem: Provide the documented inhibition at 0.111 µM with recombinant human UAE (Homo sapiens (Human), UniProt P22314) as the system for CC(C)Oc1ccc2ccccc2c1-c1cc2nccc(N[C@@H]3C[C@H](COS(N)(=O)=O)[C@@H](O)[C@H]3O)n2n1
Result: 100

Problem: Enter reported inhibition at 0.111 µM observed with recombinant human UAE (Homo sapiens (Human), UniProt P22314) for NS(=O)(=O)OC[C@H]1C[C@@H](Nc2ccnc3cc(-c4csc5ccccc45)nn23)[C@H](O)[C@@H]1O (relative stereo)
Result: 100

Problem: Notebook entry, recombinant human UAE (Homo sapiens (Human), UniProt P22314) assay: inhibition at 0.111 µM of NS(=O)(=O)OC[C@H]1C[C@@H](Nc2ccnc3cc(-c4ccc(C(F)(F)F)c5cccnc45)nn23)[C@H](O)[C@@H]1O (relative stereo) = ?
Result: 98

Problem: Report inhibition at 0.111 µM for NS(=O)(=O)OC[C@H]1C[C@@H](Nc2ccnc3cc(-c4ccc(SC(F)(F)F)cc4)nn23)[C@H](O)[C@@H]1O (relative stereo) tested on recombinant human UAE (Homo sapiens (Human), UniProt P22314).
Result: 80

Problem: Hi! What's the reported inhibition at 0.111 µM for NS(=O)(=O)OC[C@H]1C[C@@H](Nc2ccnc3cc(-c4ccccc4SC(F)(F)F)nn23)[C@H](O)[C@@H]1O (relative stereo) on recombinant human UAE (Homo sapiens (Human), UniProt P22314)?
Result: 75

Problem: Missing value: inhibition at 0.111 µM, recombinant human UAE (Homo sapiens (Human), UniProt P22314), entry NS(=O)(=O)OC[C@H]1C[C@@H](Nc2ccnc3cc(-c4ccnc5cc(Cl)ccc45)nn23)[C@H](O)[C@@H]1O (relative stereo) . Fill in?
Result: 100

Problem: Notebook: pull reported inhibition at 0.111 µM for recombinant human UAE (Homo sapiens (Human), UniProt P22314), entry NS(=O)(=O)OC[C@H]1C[C@@H](Nc2ccnc3cc(-c4ccc5c(c4)[nH]c4ccccc45)nn23)[C@H](O)[C@@H]1O (relative stereo)
Result: 100

Problem: Please tell me: inhibition at 0.111 µM of NS(=O)(=O)OC[C@H]1C[C@@H](Nc2ccnc3cc(-c4cc(C(F)(F)F)ccc4Cl)nn23)[C@H](O)[C@@H]1O (relative stereo) , system recombinant human UAE (Homo sapiens (Human), UniProt P22314)?
Result: 99

Problem: Provide the documented inhibition at 0.111 µM with recombinant human UAE (Homo sapiens (Human), UniProt P22314) as the system for CC1(C)COc2c(-c3cc4nccc(N[C@@H]5C[C@H](COS(N)(=O)=O)[C@@H](O)[C@H]5O)n4n3)cccc21 (relative stereo)
Result: 96

Problem: Item NS(=O)(=O)OC[C@H]1C[C@@H](Nc2ccnc3cc(-c4cccc(Oc5ccccc5)c4)nn23)[C@H](O)[C@@H]1O (relative stereo) with recombinant human UAE (Homo sapiens (Human), UniProt P22314) - inhibition at 0.111 µM?
Result: 90

Problem: Give recombinant human UAE (Homo sapiens (Human), UniProt P22314) inhibition at 0.111 µM for NS(=O)(=O)OC[C@H]1C[C@@H](Nc2ccnc3cc(-c4cccc5sccc45)nn23)[C@H](O)[C@@H]1O (relative stereo)
Result: 100
